# Tested on: HT1080
# assayMethodText: relative viability vs DMSO control (72 h) (fraction); higher = more viable cells
# testConditions: 0.00152 µM
The reader will find reported relative viability values listed item by item below.
measuredAttribute: relative viability

INSERT INTO assay_data (compound, measuredvalue) VALUES
  ('O=C1NC(=O)[C@@H](c2cn3c4c(cccc24)CCC3)[C@@H]1c1c[nH]c2ccccc12 [Tivantinib]', 1.03),
  ('CNC(=O)c1nnc(NC(=O)C2CC2)cc1Nc1cccc(-c2ncn(C)n2)c1OC', 1.05),
  ('COC(=O)N[C@@H](C)CNc1nccc(-c2cn(C(C)C)nc2-c2cc(Cl)cc(NS(C)(=O)=O)c2F)n1', 1.07),
  ('CC(C)NC[C@@H](C(=O)N1CCN(c2ncnc3c2[C@H](C)C[C@H]3O)CC1)c1ccc(Cl)cc1', 1.1),
  ('CC[C@@H]1CN(C(=O)NCC(F)(F)F)C[C@@H]1c1cnc2cnc3[nH]ccc3n12', 1.08),
  ('CCN(CC)CCNC(=O)c1c(C)[nH]c(/C=C2\C(=O)Nc3ccc(F)cc32)c1C', 1.1),
  ('CC1(COc2ccc3c(c2)ncn3-c2ccc3cccc(N4CCC(N)CC4)c3n2)COC1', 1.04),
  ('Cn1cc(C2=C(c3cn(C4CCN(Cc5ccccn5)CC4)c4ccccc34)C(=O)NC2=O)c2ccccc21', 1.11),
  ('CCc1cnn2c(NCc3ccc[n+]([O-])c3)cc(N3CCCC[C@H]3CCO)nc12', 1.04),
  ('COc1cc(CCc2cc(NC(=O)c3ccc(N4CC(C)NC(C)C4)cc3)n[nH]2)cc(OC)c1 (centres undefined)', 1.08),
  ('O=C(Nc1ccc(OC(F)(F)Cl)cc1)c1cnc(N2CC[C@@H](O)C2)c(-c2cc[nH]n2)c1', 1),
  ('COCCNc1cc(NC(=O)N2CCCc3cc(CN4CCN(C)CC4=O)c(C=O)nc32)ncc1C#N', 0.971),
  ('COc1cc(OC)c(/C=C/S(=O)(=O)Cc2ccc(OC)c(NCC(=O)O)c2)c(OC)c1', 1.07),
  ('CC(C)Oc1ccc(-c2nn([C@@H](C)c3oc4ccc(F)cc4c(=O)c3-c3cccc(F)c3)c3ncnc(N)c23)cc1F', 1.07);

###

The reader will find reported standardised AUC values listed item by item below.
# Tested on: SK-LMS-1
# assayMethodText: standardised AUC of viability dose-response curve (72 h) (fraction (0-1)); higher = less growth inhibition (more resistant)
measuredAttribute: standardised AUC

INSERT INTO assay_data (compound, measuredvalue) VALUES
  ('N#CCNC(=O)c1ccc(-c2ccnc(Nc3ccc(N4CCOCC4)cc3)n2)cc1 [MOMELOTINIB]', 0.941),
  ('O=S(=O)(c1cccc2cnccc12)N1CCCNCC1 [FASUDIL]', 0.986),
  ('Cc1cc2c(F)c(Oc3ncnn4cc(OC[C@@H](C)O)c(C)c34)ccc2[nH]1 [BRIVANIB]', 0.985),
  ('COC(=O)[C@@]1(O)C[C@H]2O[C@]1(C)n1c3ccccc3c3c4c(c5c6ccccc6n2c5c31)C(=O)NC4 [K-252A]', 0.666);

###

# System: HT1080
# assayMethodText: relative viability vs DMSO control (72 h) (fraction); higher = more viable cells
# testConditions: 0.00457 µM
measuredAttribute: relative viability

INSERT INTO assay_data (compound, measuredattribute, measuredvalue) VALUES
  ('CCN1C(=O)N(c2c(F)c(OC)cc(OC)c2F)Cc2cnc3[nH]c(CN4CCOCC4)cc3c21 [Pemigatinib]', 'relative viability', 1.06),
  ('COCCNc1cc(NC(=O)N2CCCc3cc(CN4CCN(C)CC4=O)c(C=O)nc32)ncc1C#N [Roblitinib]', 'relative viability', 0.997),
  ('COc1cc(Nc2ncc(F)c(Nc3ccc4c(n3)N(COP(=O)(O)O)C(=O)C(C)(C)O4)n2)cc(OC)c1OC [Fostamatinib]', 'relative viability', 1.07);

The origin of these recorded values is the supplement of paper PMC10883282.
